Listed molecules paired with reported ERT3 gene expression, fold induction
System: defense-related genes in tomato plants
Assay: Induction of defense gene expression of tomato plants (RT-qPCR)
Assay type: in vivo, tomato cv. Rio Grande
Conditions: tomato leaves sprayed, 24 h; peptides and flg15 125 μM, JA 2.5 mM, ASM 300 mg/L; ΔΔCt relative to actin; above 2 = overexpression
Protocol: Seeds of tomato cv. Rio Grande plants were sown in hydroponic seed plugs (rockwool), germinated and grown under controlled greenhouse conditions (25 ± 2°C, 16 h light / 15 ± 2°C, 8 h dark, and 60% RH). […] In each step, the RNA was quantified using a Nanodrop N-2000 spectrophotometer, and its integrity verified by denaturing agarose gel electrophoresis. […] To test gene defense induction in the treated tomato plants, a qPCR assay was performed. […] Each biological repetition treatment was analyzed in duplicate. […]
REPORTED_ENDPOINT: ERT3 gene expression, fold induction

MOLECULE	DATA_VALUE
CCCCCCCCCCCC(=O)NCCCC[C@H](NC(=O)[C@H](CC(C)C)NC(=O)[C@@H](NC(=O)[C@H](CCCCN)NC(=O)[C@H](CCCCN)NC(=O)[C@H](Cc1ccccc1)NC(=O)[C@H](CC(C)C)NC(=O)[C@H](CCCCN)NC(=O)[C@H](CCCCN)NC(C)=O)[C@@H](C)CC)C(=O)N[C@@H](Cc1ccc(O)cc1)C(=O)N[C@@H](CC(C)C)C(N)=O [BP400, Ac-KKLFKKILK(COC11H23)YL-NH2]	0.2
CCCC(=O)NCCCC[C@H](NC(=O)[C@H](CCCCN)NC(C)=O)C(=O)N[C@@H](CC(C)C)C(=O)N[C@@H](Cc1ccccc1)C(=O)N[C@@H](CCCCN)C(=O)N[C@@H](CCCCN)C(=O)N[C@H](C(=O)N[C@@H](CC(C)C)C(=O)N[C@@H](CCCCN)C(=O)N[C@@H](Cc1ccc(O)cc1)C(=O)N[C@@H](CC(C)C)C(N)=O)[C@@H](C)CC [BP381, Ac-KK(COC3H7)LFKKILKYL-NH2]	0.7
CCCC(=O)NCCCC[C@H](NC(=O)[C@@H](NC(=O)[C@H](CCCCN)NC(=O)[C@H](CCCCN)NC(=O)[C@H](Cc1ccccc1)NC(=O)[C@H](CC(C)C)NC(=O)[C@H](CCCCN)NC(=O)[C@H](CCCCN)NC(C)=O)[C@@H](C)CC)C(=O)N[C@@H](CCCCN)C(=O)N[C@@H](Cc1ccc(O)cc1)C(=O)N[C@@H](CC(C)C)C(N)=O [BP387, Ac-KKLFKKIK(COC3H7)KYL-NH2]	0.2
CSC(=O)c1cccc2nnsc12 [ASM, acybenzolar-S-methyl, reference compound]	2.9
CCCCCC(=O)NCCCC[C@H](NC(=O)[C@H](Cc1ccc(O)cc1)NC(=O)[C@H](CCCCN)NC(=O)[C@H](CC(C)C)NC(=O)[C@@H](NC(=O)[C@H](CCCCN)NC(=O)[C@H](CCCCN)NC(=O)[C@H](Cc1ccccc1)NC(=O)[C@H](CC(C)C)NC(=O)[C@H](CCCCN)NC(=O)[C@H](CCCCN)NC(C)=O)[C@@H](C)CC)C(N)=O [BP378, Ac-KKLFKKILKYK(COC5H11)-NH2]	1.0
CCCCCC(=O)NCCCC[C@H](NC(=O)[C@H](CC(C)C)NC(=O)[C@H](CCCCN)NC(=O)[C@H](CCCCN)NC(C)=O)C(=O)N[C@@H](CCCCN)C(=O)N[C@@H](CCCCN)C(=O)N[C@H](C(=O)N[C@@H](CC(C)C)C(=O)N[C@@H](CCCCN)C(=O)N[C@@H](Cc1ccc(O)cc1)C(=O)N[C@@H](CC(C)C)C(N)=O)[C@@H](C)CC [BP371, Ac-KKLK(COC5H11)KKILKYL-NH2]	0.9
